molecular target: HIV Env of isolate 6535.3 (clade B) (HIV); test: cell-based or functional assay
// IC50 (µg/ml) with constrains lookup, one value per entry
// units = µg/mL; emit number, no label

Binder	Unit Abbreviation	Recorded Measurement
ePGDM9 (antibody, V domains shown) VH: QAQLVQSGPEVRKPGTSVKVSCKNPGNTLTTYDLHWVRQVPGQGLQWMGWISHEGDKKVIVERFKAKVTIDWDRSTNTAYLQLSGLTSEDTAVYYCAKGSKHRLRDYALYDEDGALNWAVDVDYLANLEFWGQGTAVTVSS VL: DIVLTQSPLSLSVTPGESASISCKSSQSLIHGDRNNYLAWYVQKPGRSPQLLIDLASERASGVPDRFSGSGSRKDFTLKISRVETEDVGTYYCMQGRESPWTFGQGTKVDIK	µg/mL	57.8

# input for lookup
[in] Item under review: ePGDM5 (antibody, V domains shown) VH: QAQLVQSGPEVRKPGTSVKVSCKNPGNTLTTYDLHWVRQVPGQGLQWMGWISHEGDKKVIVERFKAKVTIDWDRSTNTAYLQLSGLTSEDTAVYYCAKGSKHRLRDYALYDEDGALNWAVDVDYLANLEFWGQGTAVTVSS VL: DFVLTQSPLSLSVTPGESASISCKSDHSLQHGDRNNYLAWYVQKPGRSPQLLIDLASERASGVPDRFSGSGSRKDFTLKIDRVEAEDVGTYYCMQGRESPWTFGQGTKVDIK . Reported IC50 (µg/ml) with constrains?
[out] 98.2
